- Test system: MS2 coat protein
- Experimental protocol: apparent KD of MS2 coat protein; higher = weaker reporter binding
- Cond: Eterna round: R107; input ligand: theophylline 2 mM
In this section, each of the sequences is paired with its reported apparent KD of MS2 coat protein.
// return numeric value only (unit: nM, not printed)

These solved cases illustrate the format of a correct answer.
* CUCCCGUGAGCGGCCGCCACUGGAGGCCUCGCGCGACAUGAGGAUCACCCAUGUUGGCCCGGCCUCAGGACCGGGUUCGCGUGAG [Same State - Tryptophan B Attempt #6 (HarryS)] | 12.7
* GGGCUGUGACCAGGAAAUGGUCACAGCCCACGAGGACCGGUACGGCCGCCACUCGAAAGUACAUGAGGAUCACCCAUGUCGGUGG [#1 Same State - Tryptophan A Attempt #8 (HarryS)] | 37.9
* ACUCGAGGUGGAAGGAGCGGGAGACAUGAGCAUCACAUGAGGAUCACCCAUGUAGGAUCAUCCCAGGUAGGUCGCCAUGUCGAAA [avtamullin] | 276
* CAAUAUAUAGCGGCCGCCACUUACUCAUGAGGUAACAACAUGAGGAUCACCCAUGUUUGAGGAUCAAGGACCGGGCUAUAUAUUG [AstrosSSTryB#6] | 32.2
* AGAGUUAGACAAAAGUCUAGCUCACCAGAAGGAGCGUCCGAAAGGACAGGUAGGUCGCUGGUGCAUGAGGAUCACCCAUGUUCCU [ArgAS 20 #OpenEnded #AlternativeMS2] | 313
* GCUGCUUUGGGAAGGAGCGCUGUGGUAGUGUGGCGGACAUGAGGAUCACCCAUGUGCCUGCAGCAGGUAGGUCGCUUAGGGCAGC [EAP NP+V+V2 #16] | 40.1
* GCCUAGCAUCGAAGGAGCGCUGGUGAAACUGACUAAUAUACAUGAGGAUCACCCAUGUGCUAGCAGGUAGGUCGCGAUGCUAGGC [SSAB NP+V+V2 #11] | 25.5
* CCAUGCAGGUCGGCCGCCACUACACACAUGAGGAUCACCCAUGUAGUUACUGGGUGAAGUGGCAGUAGGACCGGGACCUGCAUAU [Brourdmod11] | 504

apparent KD of MS2 coat protein lookup needed for AAUAUAUAUCACGAACUGUGGUGUAUGUUGCGAGGACCGGUACGGCCGCCACUCGGCCGGUGGUACAUGAGGAUCACCCAUGUUG [XTryp A #9] , thanks.
40.1

apparent KD of MS2 coat protein lookup needed for AAUAACUUGAGGAUCACCCAAGUAAAAGAUACCAGAGUGAUGAUCCUCCCUUGGCAGCUUAACGCUGAUUGAUUACAAUCAGCGA , thanks.
121

apparent KD of MS2 coat protein lookup needed for AUCAUCAGUUCGGCCGCCACUGUUUGGCACAGUUGUAUCGUACAUGAGGAUCACCCAUGUCACCACAGGACCGGGAACGCCGUCG [theeternabot_exclusion_MS2_Trp_B_1] , thanks.
18.3

apparent KD of MS2 coat protein lookup needed for GGCACAUAGUCGGCCGCCACUAGAAUAAGAAGGGAAAACAUGAGGAUCACCCAUGUAAAAGGGACUAGGACCGGGACUAUGUGCC [Shrew] , thanks.
17

---

In this section, each of the sequences is paired with its reported apparent KD of K4 kissing-loop reporter.
- System: K4 kissing-loop RNA reporter
- Experimental protocol: apparent KD of K4 kissing-loop reporter; higher = weaker reporter binding
- Cond: Eterna round: R107; input ligand: theophylline 20 uM
// return numeric value only (unit: nM, not printed)

These solved cases illustrate the format of a correct answer.
- GCCGUACGCAUGGAUACCAGUUGCGAAGUGAUGUUUCGGGCGAUCAAAGGAUCGCCCUACAACCCUUGGCAGCCAUGCGUACGGC: 204
- ACCCAAGCCCAUCGCGCAGUGAUGUUGUCGCGAGGACCGGUACGGCCGCCACUCGAUAGCAGUGGCAACGUCAUCAUAAUCGAUU [theeternabot_exclusion_KL_Trp_A_50]: 299

Could you now consider this next sequence?
apparent KD of K4 kissing-loop reporter lookup needed for AAGUUGAACUGAAGGAGCGAGAAAUAGAAUGUAAGAAUAUAUGCUAGUGAUGUUAGAAAUUCUCAGGUAGGUCGCAGUAAGUUUU [V2] , thanks.
407

---

- Tested on: MS2 coat protein
- Experimental protocol: apparent KD of MS2 coat protein; designed switch direction (-1 OFF switch, 1 ON switch): -1; higher = weaker reporter binding
- Cond: input ligand: FMN 200 uM
Test readout: apparent KD of MS2 coat protein (µM)
// return numeric value only (unit: µM, not printed)

These solved cases illustrate the format of a correct answer.
- GCCUCACUUGAGGAUCACCCAAGUCAGGAUAUCUACAGGCCGGCCAUACCAGCCUGCAAGAGAAGGGACUCUAA [Isriqu] (Eterna round: R97, puzzle: Exclusion 1): 0.245
- UUUGCAAGCUUAAGAUCCCACAUGAGGAUCACCCAUGUUGCUGCCGUGAGGUAGCUUUUAACUUAUGCUCGUCUUAU [JL TOV1 3.46] (Eterna round: R97, puzzle: Sensor, turn-off variant 1): 0.0957
- UUUUCGUAAGGAUAUGGUUAGAUCUACGAAAGUAGAUCUAACCAGAAGGUACAUGAGGAUCACCCAUGUUGGUA [Mod of Brourd 22 - Jieux - Exclusion 4] (Eterna round: R97, puzzle: Exclusion 4): 0.0798
- UACACUGCAUGAGGAUCAAACAUGAGGAUCACCCAUGUAUAGCAGGCUUUUUGUCCGUCUUAUAAUUAUGUAGUGUA [Electric Eye 17 - Jieux - Sensor, turn-off variant 1] (Eterna round: R97, puzzle: Sensor, turn-off variant 1): 0.0173

Could you now consider this next sequence?
apparent KD of MS2 coat protein lookup needed for CGCACGUAAGGAUAUACAUGAGGAUCACCCAUGUGUAAAUACUGCAACGUGGUGAAUAGUAGAAGGUACGAUGC [Eternabot (L2) Solution 56] (Eterna round: R97, puzzle: Exclusion 3) , thanks.
0.0555

---

- Test system: K4 kissing-loop RNA reporter;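 also: bound reporter read as fluorescence of individual clusters on recovered sequencing chips by microscopy, with normalized cluster intensities fitted with a binding model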
- Experimental protocol: apparent KD of K4 kissing-loop reporter; higher = weaker reporter binding
- Cond: Eterna round: R107; input ligand: FMN 200 uM
Test readout: apparent KD of K4 kissing-loop reporter (µM)
// return numeric value only (unit: µM, not printed)

apparent KD of K4 kissing-loop reporter lookup needed for GGCAGUGAUGUUGCCAGUGGCAGAUGCGAAGGAGCGCGGUGAGACGCAGGUAGGUCGCGCAUUGAAAUUGCUGUCACUAAAAUGC [#1] , thanks.
0.261

apparent KD of K4 kissing-loop reporter lookup needed for UAAGAGGACCACUGCAAGAGUCCUCGAAUACGAGGACCGGUACGGCCGCCACUCGAUAACUUGUAGUGAUGUUGCAAGUAAGAAU [BrourdMod 1 - Jieux - Same State Tryptophan A] , thanks.
0.0712

---

- Test system: MS2 coat protein
- Experimental protocol: apparent KD of MS2 coat protein, switch ON state; designed switch direction (-1 OFF switch, 1 ON switch): 1; higher = weaker reporter binding
- Cond: FMN input: 0 or 200 uM; Eterna round: R93 (includes R88 designs)
Test readout: apparent KD of MS2 coat protein (nM)
// return numeric value only (unit: nM, not printed)

• UUUAAUUAUACGAAGGAUAUCGGUAAUUAGACAUGAGGAUCACCCAUGUUAUAAGGUUCCAUAUUCGAGAAGGUCGCGGGUGAAC [JR_SS002_Sub509] = 16.1
• AAUAACAAAAGAAAGGAUAUGCGCACAGGAACAUGAGGAUCACCCAUGUGCCGCCAAGGCGGAUAGCAGAAGGUUCACACGCAUA [Default title] = 19.4
• GAAAAACAUGAGGAUCACCCAUGUAGAAAUAUGGAAGGAUAUACAAAGACGAAACUGAAAGUAGAAGGUCUAAAAG [Garnet 95] = 23.2

Could you now consider this next sequence?
apparent KD of MS2 coat protein lookup needed for CGGAGACAUGAGGAUCACCCAUGUGAGAAGAGGCGAGGAUAUCGAAAGAAAGAAGAGAAACGAGAAGGCGCGAGUG [salish99-SS1-074] , thanks.
21.9

---

In this section, each of the sequences is paired with its reported apparent KD of MS2 coat protein.
- System: MS2 coat protein
- Experimental protocol: apparent KD of MS2 coat protein; designed switch direction (-1 OFF switch, 1 ON switch): 1; higher = weaker reporter binding
- Cond: Eterna round: R95; input ligand: none
// return numeric value only (unit: nM, not printed)

* GCACAUGCACAUGAGGAUCACCCAUGUCCCGCGCCCAUUAGGGCGCGGUGGCCGCAAGUUUUUUGCUCGUCUUAUAA [BIOPHYS241_ElaineNg_2] (puzzle: Sensor for hsa-mir-208a version 2) | 38.8
* AAGCCUGUAGCACAGGAUAUCCGAGGCAAAACAUGAGGAUCACCCAUGUCAAACGAAAAUCCGAAGGAGAAGGGUGAACAGGCUC [Laarededqu] (puzzle: Same State 2) | 8.24

Could you now consider this next sequence?
apparent KD of MS2 coat protein lookup needed for CGUUCUUACUCAGGACGGAGAGUAGAGGAACAUGAGGAUCACCCAUGUAUGAGCUUUUUGCUCGUGAUUAACAGUAG [JR_SHM208a_Sub013] (puzzle: Sensor for hsa-mir-208a) , thanks.
122
